tested on: Fibroblast growth factor 22 (Homo sapiens) (UniProt Q9HCT0)
Sequence (Q9HCT0 whole entry, looked up): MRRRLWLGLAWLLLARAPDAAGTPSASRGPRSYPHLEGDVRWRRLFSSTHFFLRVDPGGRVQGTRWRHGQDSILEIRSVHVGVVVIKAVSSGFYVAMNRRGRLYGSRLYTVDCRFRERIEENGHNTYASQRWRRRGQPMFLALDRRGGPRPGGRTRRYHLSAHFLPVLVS
measurement description: binders of human FGF22 protein, dose response, FGF22 synaptogenesis inhibitor project, biophysical, thermal shift, cherry-pick (AID 687022); note: reference of the scale not given here
applied conditions: recombinant FGF22 thermal shift, SYPRO orange melting; series mostly up to 38 µM
About 360 (36%) of roughly 1,000 compounds were called active. Only a sample is shown.
measured metric: Tm shift activity

CC(C)(CNCc1ccccc1)NS(=O)(=O)c1ccc(Cl)cc1 ... inactive
CCOC(=O)C1CCC(CNCc2ccccc2C)CC1 (centres undefined) ... inactive
C/C=C/c1ccc([C@@H]2[C@H](C#N)N(C(=O)CN3CCOCC3)[C@H]2CO)cc1 ... inactive
CCOC(=O)Cn1c2ccccc2n2nc(CCC(=O)O)c(=O)nc12 ... inactive
C[C@H](CO)N1C[C@H](C)[C@@H](CN(C)C(=O)Nc2cccc3ccccc23)Oc2c(NS(C)(=O)=O)cccc2C1=O ... inactive

For the molecule C[C@H]1CN([C@@H](C)CO)S(=O)(=O)c2ccc(C#Cc3ccncc3)cc2O[C@H]1CN(C)C(=O)Nc1ccc2c(c1)OCO2 , give its measured Tm shift activity value. inactive

For the molecule O=C(N[C@@H]1C=C[C@@H](CC(=O)N2CCCCC2)O[C@@H]1CO)c1cccc(F)c1 , give its measured Tm shift activity value. inactive

For the molecule CC1CC(CC(=O)NC(=S)Nc2ccccc2Cl)C(=O)O1 (centres undefined) , give its measured Tm shift activity value. inactive

For the molecule CC(C)NC(=O)N1[C@H](CO)[C@H](c2ccccc2-c2ccc(F)cc2)[C@@H]1C#N , give its measured Tm shift activity value. inactive
